system: MOLT-4; test: NCI60 growth inhibition, MOLT-4; assay type: cell-based; settings: Leukemia
quantity kind: Growth inhibition (% control) GIPRCNT
Number only, in % control; omit the unit.

Sample CN1CCN(c2cc(F)c(NC3=C(Cl)C(=O)c4ncccc4C3=O)c(F)c2)CC1 — what was its Growth inhibition (% control) GIPRCNT? −22.6883

Sample Cc1ccc2c(n1)C(=O)C(Cl)=C(Nc1ccc(N3CCN(C)CC3)cc1)C2=O — what was its Growth inhibition (% control) GIPRCNT? −25.588

Sample O=C1c2cccnc2C(=O)c2nc3cc(N4CCN(C5CC5)CC4)ccc3nc21 — what was its Growth inhibition (% control) GIPRCNT? 26.2

Sample CN1CCN(c2ccc3nc4c(nc3c2C(F)(F)F)C(=O)c2ncccc2C4=O)CC1 — what was its Growth inhibition (% control) GIPRCNT? −36.4229

----------
For each record, write down the corresponding Growth inhibition (% control) GIPRCNT.
tested on: MDA-MB-435; assay: NCI60 growth inhibition, MDA-MB-435; type: cell-based; settings: Melanoma
Number only, in % control; omit the unit.

Sample O=C1c2cccnc2C(=O)c2nc3cc(N4CCN(C5CC5)CC4)ccc3nc21 — what was its Growth inhibition (% control) GIPRCNT? −87.4148

Sample CN1CCN(c2cc(F)c(NC3=C(Cl)C(=O)c4ncccc4C3=O)c(F)c2)CC1 — what was its Growth inhibition (% control) GIPRCNT? −75.7981

Sample Cc1ccc2c(n1)C(=O)C(Cl)=C(Nc1ccc(N3CCN(C)CC3)cc1)C2=O — what was its Growth inhibition (% control) GIPRCNT? −99.1118

Sample CN1CCN(c2ccc3nc4c(nc3c2C(F)(F)F)C(=O)c2ncccc2C4=O)CC1 — what was its Growth inhibition (% control) GIPRCNT? −91.762

----------
tested on: A498; assay: NCI60 growth inhibition, A498; type: cell-based; conditions: Renal Cancer; note: test concentration or dose not given here
quantity kind: Growth inhibition (% control) GIPRCNT
Number only, in % control; omit the unit.

Sample Cc1ccc2c(n1)C(=O)C(Cl)=C(Nc1ccc(N3CCN(C)CC3)cc1)C2=O — what was its Growth inhibition (% control) GIPRCNT? 100.8258

Sample CN1CCN(c2ccc3nc4c(nc3c2C(F)(F)F)C(=O)c2ncccc2C4=O)CC1 — what was its Growth inhibition (% control) GIPRCNT? −21.1398

Sample CN1CCN(c2cc(F)c(NC3=C(Cl)C(=O)c4ncccc4C3=O)c(F)c2)CC1 — what was its Growth inhibition (% control) GIPRCNT? 80.11

Sample O=C1c2cccnc2C(=O)c2nc3cc(N4CCN(C5CC5)CC4)ccc3nc21 — what was its Growth inhibition (% control) GIPRCNT? −88.1317

----------
tested on: COLO 205; experiment: NCI60 growth inhibition, COLO 205; type: cell-based; conditions: Colon Cancer
For each record, write down the corresponding Growth inhibition (% control) GIPRCNT.
Number only, in % control; omit the unit.

Sample O=C1c2cccnc2C(=O)c2nc3cc(N4CCN(C5CC5)CC4)ccc3nc21 — what was its Growth inhibition (% control) GIPRCNT? −68.34

Sample Cc1ccc2c(n1)C(=O)C(Cl)=C(Nc1ccc(N3CCN(C)CC3)cc1)C2=O — what was its Growth inhibition (% control) GIPRCNT? 82.4617

Sample CN1CCN(c2cc(F)c(NC3=C(Cl)C(=O)c4ncccc4C3=O)c(F)c2)CC1 — what was its Growth inhibition (% control) GIPRCNT? 33.98

Sample CN1CCN(c2ccc3nc4c(nc3c2C(F)(F)F)C(=O)c2ncccc2C4=O)CC1 — what was its Growth inhibition (% control) GIPRCNT? −94.9856
